// data source = paper PMC4084891

EXPERIMENTAL TARGET: HIV-1 reverse transcriptase, recovered from plasma of HIV-1 infected patients
MEASUREMENT DESCRIPTION: ExaVir Drug susceptibility assay (RT-based phenotypic), RT recovered from patient plasma
Type: biochemical
APPLIED CONDITIONS: read-out: IC50 to ETR; patient sample 8b
ATTRIBUTE MEASURED: IC50

Data request: Fill in the blank: the reported IC50 of Cc1cc(C#N)cc(C)c1Oc1nc(Nc2ccc(C#N)cc2)nc(N)c1Br is ____.
Data returned: > 100 µM

* * *

EXPERIMENTAL TARGET: HIV-1 reverse transcriptase, recovered from plasma of HIV-1 infected patients
MEASUREMENT DESCRIPTION: ExaVir Drug susceptibility assay (RT-based phenotypic), RT recovered from patient plasma
Format: biochemical
APPLIED CONDITIONS: read-out: IC50 to ETR; patient sample 19
ATTRIBUTE MEASURED: IC50 (µM)
Report as a plain number; the unit µM is understood.

Data request: Fill in the blank: the reported IC50 of Cc1cc(C#N)cc(C)c1Oc1nc(Nc2ccc(C#N)cc2)nc(N)c1Br [ETR] is ____.
Data returned: 6.4
